# Measurement Target: Human D4R (Homo sapiens, UniProt P21917)
# Sequence (P21917 whole entry): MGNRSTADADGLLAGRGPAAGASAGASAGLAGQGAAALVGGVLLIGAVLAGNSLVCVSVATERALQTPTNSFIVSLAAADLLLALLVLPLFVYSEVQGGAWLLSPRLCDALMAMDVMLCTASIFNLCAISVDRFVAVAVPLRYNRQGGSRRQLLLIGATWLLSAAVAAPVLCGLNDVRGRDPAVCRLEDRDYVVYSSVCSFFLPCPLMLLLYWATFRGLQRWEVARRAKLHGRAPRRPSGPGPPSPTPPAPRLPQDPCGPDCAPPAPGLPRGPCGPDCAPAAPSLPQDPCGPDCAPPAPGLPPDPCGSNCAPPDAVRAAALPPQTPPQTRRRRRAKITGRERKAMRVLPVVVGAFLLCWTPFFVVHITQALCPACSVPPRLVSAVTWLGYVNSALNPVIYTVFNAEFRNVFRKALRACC
pKi: −log10 of the molar value.
Quantity Measured: pKi

>>> df
                                   compound  quantity_measured  test_value
0  Cc1cc(Oc2cccc(O)c2O)ccc1-c1c(C)ncnc1C [PF-1437]                pKi      < 5.00
1  Cc1cc(Oc2nccc3occc23)ccc1-c1c(C)ncnc1C [PF-8871]                pKi      < 5.00
2  Cc1n[nH]c(=O)c(C)c1-c1ccc(Oc2nccc3occc23)cc1F [PF-2334]                pKi      < 5.00
